Target: Recombinant human furin (Homo sapiens, UniProt P09958)
Sequence (P09958 108-715 limits assumed): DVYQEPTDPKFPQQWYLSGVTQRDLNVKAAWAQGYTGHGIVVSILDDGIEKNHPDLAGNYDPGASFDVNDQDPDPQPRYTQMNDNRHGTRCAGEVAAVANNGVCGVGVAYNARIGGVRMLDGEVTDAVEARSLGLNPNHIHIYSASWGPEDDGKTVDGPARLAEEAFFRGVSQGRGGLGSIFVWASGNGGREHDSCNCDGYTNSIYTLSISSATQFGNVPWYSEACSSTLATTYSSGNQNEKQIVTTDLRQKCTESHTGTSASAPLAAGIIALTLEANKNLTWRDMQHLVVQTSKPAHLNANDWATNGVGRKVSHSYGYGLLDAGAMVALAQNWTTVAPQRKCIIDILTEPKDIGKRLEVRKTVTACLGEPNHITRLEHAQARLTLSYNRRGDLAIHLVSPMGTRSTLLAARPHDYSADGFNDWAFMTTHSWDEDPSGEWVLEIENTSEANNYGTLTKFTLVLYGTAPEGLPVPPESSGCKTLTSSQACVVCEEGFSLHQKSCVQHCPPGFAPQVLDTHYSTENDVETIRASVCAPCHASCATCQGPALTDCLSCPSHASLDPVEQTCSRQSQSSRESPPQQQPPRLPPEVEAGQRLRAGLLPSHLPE
Format: biochemical
Conditions: pH 7
*: point of attachment. EDDnp = O=[N+]([O-])c1ccc(NCCN*)c([N+](=O)[O-])c1
value type: kcat

(Q) What value of measured kcat is listed for QSRRRR↓QTPP [compound 41] ?
(A) 3.4 (6.3) s^−1

(Q) Entry under review: Abz-SGRSRRAIDLQ-EDDnp [peptide 10] . Reported kcat?
(A) 6.2 (4.3) s^−1

(Q) // returns reported kcat for input RRRKKR↓SLFG [compound 46]
(A) 7.6 (1.0) s^−1

(Q) Record request: kcat value, item HRRQKR↓SVAL [compound 14]
(A) 14.9 (9.2) s^−1

(Q) Fill in the blank: the reported kcat of LRRRRR↓DAGN [compound 25] is ____.
(A) 12.3 (1.1) s^−1

(Q) Quick one: kcat of LKRRRR↓DTQQ [compound 30] ?
(A) 6.7 (0.61) s^−1

(Q) Query (substance): SSRHRR↓ALDT [compound 36] ; field requested: kcat
(A) 7.1 (5.6) s^−1

(Q) # get_value(readout='kcat', item= Abz-RKRSRRQVNTQ-EDDnp [peptide 1] )
(A) 11.3 (8.4) s^−1

(Q) What does the data say about its kcat? Entry: QIRAKR↓ELSK [compound 2]
(A) 6.7 (9.7) s^−1

(Q) Quick one: kcat of SRRKRR↓DVTP [compound 6] ?
(A) 9.9 (9.2) s^−1
